Biological target: Klebsiella pneumoniae FtsZ (KpFtsZ) (Klebsiella pneumoniae)
Sequence (A0A0H3GRR0 entry or part of it): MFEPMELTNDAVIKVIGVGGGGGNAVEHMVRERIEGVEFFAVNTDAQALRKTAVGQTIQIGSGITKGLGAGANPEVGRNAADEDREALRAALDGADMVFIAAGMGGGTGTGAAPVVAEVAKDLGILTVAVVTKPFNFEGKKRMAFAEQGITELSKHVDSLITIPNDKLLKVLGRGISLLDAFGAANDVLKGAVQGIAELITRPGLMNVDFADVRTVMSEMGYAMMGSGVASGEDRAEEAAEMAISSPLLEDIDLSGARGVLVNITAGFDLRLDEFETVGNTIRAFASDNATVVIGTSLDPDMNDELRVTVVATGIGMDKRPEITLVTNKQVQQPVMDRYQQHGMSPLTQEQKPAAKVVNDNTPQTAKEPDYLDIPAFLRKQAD
Assay: Fluorescence anisotropy binding of BOFP to FtsZ
Settings: 15° C., 50 mM Tris-HCl (pH 7.6), 50 mM KCl, read-out: Kd −15° C.
readout name: Kd (nM)

| compound | system name | readout name | uom | test value |
| --- | --- | --- | --- | --- |
| CC1=CC(C)=[N+]2C1=Cc1ccc(CCC(=O)OCC(Oc3ccc(F)c(C(N)=O)c3F)c3nc(-c4ccc(C(F)(F)F)cc4)c(Br)o3)n1[B-]2(F)F (stereo not shown) [BOFP] | Klebsiella pneumoniae FtsZ (KpFtsZ) (Klebsiella pneumoniae) | Kd | nM | 420 |

###

Target: Streptococcus pneumoniae FtsZ (SpnFtsZ) (Streptococcus pneumoniae, UniProt A0A0H2ZNE0)
Sequence (A0A0H2ZNE0 whole entry): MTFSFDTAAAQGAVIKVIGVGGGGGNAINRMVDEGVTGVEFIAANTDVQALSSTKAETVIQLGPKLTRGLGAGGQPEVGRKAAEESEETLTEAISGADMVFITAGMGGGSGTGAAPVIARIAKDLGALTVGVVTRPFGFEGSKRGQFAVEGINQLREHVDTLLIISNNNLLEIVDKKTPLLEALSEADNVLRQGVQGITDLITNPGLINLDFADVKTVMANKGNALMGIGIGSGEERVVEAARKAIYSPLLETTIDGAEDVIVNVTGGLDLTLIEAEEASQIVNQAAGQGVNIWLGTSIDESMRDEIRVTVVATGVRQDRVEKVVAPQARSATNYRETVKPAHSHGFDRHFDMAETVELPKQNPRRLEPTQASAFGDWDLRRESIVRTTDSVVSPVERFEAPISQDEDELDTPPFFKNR
Test: Fluorescence anisotropy binding of BOFP to FtsZ
Settings: 15° C., 50 mM Tris-HCl (pH 7.6), 50 mM KCl, read-out: Kd −15° C.
pKd: −log10 of the molar value.

| compound | pKd |
| --- | --- |
| CC1=CC(C)=[N+]2C1=Cc1ccc(CCC(=O)OCC(Oc3ccc(F)c(C(N)=O)c3F)c3nc(-c4ccc(C(F)(F)F)cc4)c(Br)o3)n1[B-]2(F)F (stereo not shown) | 5.52 |

###

Target: Enterococcus faecium FtsZ (EfmFtsZ) (Enterococcus faecium)
Sequence (Q3Y2I1 1-413): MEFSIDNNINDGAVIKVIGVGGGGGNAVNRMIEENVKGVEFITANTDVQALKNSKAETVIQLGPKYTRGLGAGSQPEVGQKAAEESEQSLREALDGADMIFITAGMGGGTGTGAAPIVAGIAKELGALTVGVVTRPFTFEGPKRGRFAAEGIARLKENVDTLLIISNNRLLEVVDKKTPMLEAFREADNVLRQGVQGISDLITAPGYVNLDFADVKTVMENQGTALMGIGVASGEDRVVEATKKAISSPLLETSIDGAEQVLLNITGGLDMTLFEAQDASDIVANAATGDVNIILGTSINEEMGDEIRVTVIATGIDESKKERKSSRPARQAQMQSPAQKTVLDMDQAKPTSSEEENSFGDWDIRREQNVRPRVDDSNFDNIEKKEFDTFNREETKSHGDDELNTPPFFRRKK
Assay: Fluorescence anisotropy binding of BOFP to FtsZ
Details: 15° C., 50 mM Tris-HCl (pH 7.6), 50 mM KCl, read-out: Kd −15° C.
pKd: −log10 of the molar value.

| molecule | pKd |
| --- | --- |
| CC1=CC(C)=[N+]2C1=Cc1ccc(CCC(=O)OCC(Oc3ccc(F)c(C(N)=O)c3F)c3nc(-c4ccc(C(F)(F)F)cc4)c(Br)o3)n1[B-]2(F)F (stereo not shown) | 5.60 |

###

Target: Enterococcus faecium FtsZ (EfmFtsZ) (Enterococcus faecium, UniProt Q3Y2I1)
Sequence (Q3Y2I1 1-413): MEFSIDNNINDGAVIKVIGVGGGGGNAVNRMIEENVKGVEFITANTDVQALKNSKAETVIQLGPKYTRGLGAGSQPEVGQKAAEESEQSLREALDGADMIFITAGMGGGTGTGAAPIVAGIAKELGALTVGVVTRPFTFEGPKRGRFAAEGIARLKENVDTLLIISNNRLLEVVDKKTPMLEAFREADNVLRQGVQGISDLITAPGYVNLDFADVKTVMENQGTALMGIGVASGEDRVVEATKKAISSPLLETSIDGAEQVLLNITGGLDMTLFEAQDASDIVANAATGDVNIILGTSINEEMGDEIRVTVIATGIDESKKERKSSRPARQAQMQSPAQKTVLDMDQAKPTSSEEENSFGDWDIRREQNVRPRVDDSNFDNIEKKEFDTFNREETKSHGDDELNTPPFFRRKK
Assay: Fluorescence anisotropy binding of BOFP to FtsZ
Conditions: 25° C., 50 mM Tris-HCl (pH 7.6), 50 mM KCl, read-out: Kd −25° C.
pKd: −log10 of the molar value.

| compound | pKd |
| --- | --- |
| CC1=CC(C)=[N+]2C1=Cc1ccc(CCC(=O)OCC(Oc3ccc(F)c(C(N)=O)c3F)c3nc(-c4ccc(C(F)(F)F)cc4)c(Br)o3)n1[B-]2(F)F (stereo not shown) | 5.58 |

###

Biological target: Streptococcus pneumoniae FtsZ (SpnFtsZ) (Streptococcus pneumoniae, UniProt A0A0H2ZNE0)
Test: Fluorescence anisotropy binding of BOFP to FtsZ
Details: 37° C., 50 mM Tris-HCl (pH 7.6), 50 mM KCl, read-out: Kd −37° C.
Experimental: Fluorescence anisotropy assay for determining the affinities and thermodynamics associated with the binding of BOFP to FtsZ proteins. Fluorescence anisotropy experiments were performed using an AVIV model ATF105 spectrofluorometer at 15, 25, or 37° C. […] After each protein addition, the samples were equilibrated for 3 minutes, whereupon the fluorescence anisotropy was measured. […]
readout name: Kd (µM)

| compound | system name | readout name | uom | test value |
| --- | --- | --- | --- | --- |
| CC1=CC(C)=[N+]2C1=Cc1ccc(CCC(=O)OCC(Oc3ccc(F)c(C(N)=O)c3F)c3nc(-c4ccc(C(F)(F)F)cc4)c(Br)o3)n1[B-]2(F)F (stereo not shown) | Streptococcus pneumoniae FtsZ (SpnFtsZ) (Streptococcus pneumoniae, UniProt A0A0H2ZNE0) | Kd | µM | 3.81 |

###

Target: Pseudomonas aeruginosa FtsZ (PaFtsZ) (Pseudomonas aeruginosa, UniProt P47204)
Sequence (P47204 whole entry): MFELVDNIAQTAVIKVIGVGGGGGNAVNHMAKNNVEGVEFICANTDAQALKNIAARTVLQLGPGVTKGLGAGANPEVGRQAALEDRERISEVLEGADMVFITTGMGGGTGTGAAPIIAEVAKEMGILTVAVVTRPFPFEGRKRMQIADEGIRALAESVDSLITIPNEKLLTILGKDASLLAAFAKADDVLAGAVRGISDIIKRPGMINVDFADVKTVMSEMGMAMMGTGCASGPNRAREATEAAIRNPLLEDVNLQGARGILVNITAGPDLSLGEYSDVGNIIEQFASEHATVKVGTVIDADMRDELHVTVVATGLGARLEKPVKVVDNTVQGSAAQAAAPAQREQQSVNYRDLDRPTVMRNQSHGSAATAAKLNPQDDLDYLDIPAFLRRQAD
Assay: Fluorescence anisotropy binding of BOFP to FtsZ
Conditions: 37° C., 50 mM Tris-HCl (pH 7.6), 50 mM KCl, read-out: Kd −37° C.

| molecule | Kd (nM) |
| --- | --- |
| CC1=CC(C)=[N+]2C1=Cc1ccc(CCC(=O)OCC(Oc3ccc(F)c(C(N)=O)c3F)c3nc(-c4ccc(C(F)(F)F)cc4)c(Br)o3)n1[B-]2(F)F (stereo not shown) [BOFP] | 580 |

###

Target: Acinetobacter baumannii FtsZ (AbFtsZ) (Acinetobacter baumannii)
Sequence (V5V8B6 1-391): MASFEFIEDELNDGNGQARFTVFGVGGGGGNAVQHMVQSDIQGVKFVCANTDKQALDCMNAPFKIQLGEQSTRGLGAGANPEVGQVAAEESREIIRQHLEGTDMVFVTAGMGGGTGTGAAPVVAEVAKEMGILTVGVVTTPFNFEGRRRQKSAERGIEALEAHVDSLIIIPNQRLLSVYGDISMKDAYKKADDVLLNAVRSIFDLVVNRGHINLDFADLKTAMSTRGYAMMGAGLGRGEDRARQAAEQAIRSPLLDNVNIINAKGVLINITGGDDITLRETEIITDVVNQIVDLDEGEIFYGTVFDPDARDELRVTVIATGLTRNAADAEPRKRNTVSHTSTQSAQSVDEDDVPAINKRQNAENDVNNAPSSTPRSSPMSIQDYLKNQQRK
Assay: Fluorescence anisotropy binding of BOFP to FtsZ
Details: 37° C., 50 mM Tris-HCl (pH 7.6), 50 mM KCl, read-out: Kd −37° C.

| compound | Kd [nM] |
| --- | --- |
| CC1=CC(C)=[N+]2C1=Cc1ccc(CCC(=O)OCC(Oc3ccc(F)c(C(N)=O)c3F)c3nc(-c4ccc(C(F)(F)F)cc4)c(Br)o3)n1[B-]2(F)F (stereo not shown) [BOFP] | 680 |
